The reported measurements were obtained from ChEMBL document CHEMBL4513216.

System: Plasmodium berghei
Assay Remarks: Screen against P. berghei liver stage (PbLuc), transformed with Luciferase, at 10uM
Type: functional, HepG2
Details: tested at 10 uM
Screen size: about 69,000 compounds; about 8,600 (12%) showed an effect of 50% or more. The list comes from a sample in which strong results are over-represented; it also holds close analogues and randomly drawn compounds.
Label scheme for INHIBITION: lower than 40% is criterion not met, 40% and above is criterion met.

Examples with answers:
{"Compound": "CS(=O)(=O)NCCN1CCSCC1c1ccc(Cl)cc1 (stereo not drawn)", "Test System": "Plasmodium berghei", "Label": "criterion not met"}
{"Compound": "CC(c1ccc(Cl)cc1)N1CCN(CCCS(C)(=O)=O)CC1 (stereo not drawn)", "Test System": "Plasmodium berghei", "Label": "criterion not met"}
{"Compound": "COCC1CN(Cc2ccncc2)Cc2nn(CC3CC3)cc21 (stereo not drawn)", "Test System": "Plasmodium berghei", "Label": "criterion not met"}

INHIBITION >= 40% for CS(=O)(=O)CCN1CCSCC1c1ccc(Cl)cc1 (stereo not drawn) ?
criterion met

---

Please respond with reported INHIBITION for every item in the list.
Test system: Plasmodium berghei
Assay Remarks: Screen against P. berghei liver stage (PbLuc), transformed with Luciferase, at 10uM
Assay type: functional, HepG2
Details: tested at 10 uM
Among all 69,000 compounds or so, about 8,600 (12%) showed an effect of 50% or more. This excerpt belongs to a sample that is enriched for strong results.
Answers are plain numbers, in %.

Observe how each entry below is paired with its result.
{"Molecule": "O=C(NCc1cccnc1N1CCCCC1)c1ccc2cc[nH]c2c1", "Property": "INHIBITION", "Unit Label": "%", "Experimental Result": 2.7}
{"Molecule": "COc1ccc(CN2CC(O)CN(C(=O)CC(C)C)CC2=O)cc1 (stereo unspecified)", "Property": "INHIBITION", "Unit Label": "%", "Experimental Result": 19.2}

Can you give me INHIBITION for all of these, one by one?
1. CC(=O)N1CCc2nc(C3CCN(C(=O)c4ccccc4)C3)ncc2C1 (stereo unspecified)
2. OC(CN1CCN(CC2CCCCC2)CC1)c1ccccc1 (stereo unspecified)
3. CC(C)n1ncc2cc(NC(=O)N3CCC(CO)CC3)cnc21
4. CCc1nn(C)c(Cl)c1CN1CCN(c2ccc(C(N)=O)cn2)CC1
5. CC(C)NC(=O)N1Cc2nccn2CC(COc2cccnc2)C1 (stereo unspecified)
6. Cn1ccnc1CN1C[C@@H]2[C@@H](C1)OCC(=O)N2CC1CCCC1
7. COCCN1CCC(c2nc3ccc(-c4ccccc4)cn3n2)CC1

1: -29.8; 2: 93.8; 3: 29.7; 4: 40.7; 5: 22.4; 6: 39.8; 7: -18.4

Can you give me INHIBITION for all of these, one by one?
1. CCOCCN1CCN(CC(O)c2ccc(C(F)(F)F)cc2)CC1 (stereo unspecified)
2. COCC1CC2(CCN(Cc3ccco3)CC2)CN1C(C)C (stereo unspecified)
3. CC1(C)[C@@H]2CC=C(CN3CCCn4nc(C(=O)NCCO)cc4C3)[C@H]1C2

[24, 14.6, 68.4]

---

Tested on: Plasmodium berghei
Assay Remarks: Screen against P. berghei liver stage (PbLuc), transformed with Luciferase, at 10uM
Assay type: functional, HepG2
Details: tested at 10 uM
Screen size: about 69,000 compounds; about 8,600 (12%) showed an effect of 50% or more. The entries come from a sample that favours strong results as a whole.
Parameter class (string): assigned from measured INHIBITION. Ranges: small value = under 20%, mid value = from 20% up to 40%, large value = 40% and over

{"Molecule": "Cn1cncc1C(=O)N1CCOC2(COCCN(CC3CC3)C2)C1 (stereo not drawn)", "Label": "small value"}

# bin lookup: classify CS(=O)(=O)CCN(CCc1cccc(F)c1)C1CC1 by its INHIBITION
mid value

# bin lookup: classify O=C(c1n[nH]c2c1CCN(Cc1nccs1)C2)N1CCCC1 by its INHIBITION
small value

---

System: Plasmodium berghei
Assay Remarks: Screen against P. berghei liver stage (PbLuc), transformed with Luciferase, at 10uM
Assay type: functional, HepG2
Details: tested at 10 uM
Screen size: about 69,000 compounds; about 8,600 (12%) showed an effect of 50% or more. Shown is part of a subset that was picked to be rich in strong results.
Please respond with reported INHIBITION for every item in the list.
Answers are plain numbers, in %.

{"Compound": "O=C(NCC1CC2(CO1)CN(c1nncs1)C2)C1CCC1 (stereo not given)", "Unit Label": "%", "INHIBITION": 1.36}
{"Compound": "Cc1ccc(CN2CCCn3c(nc(Cn4ccnc4)cc3=O)C2)o1", "Unit Label": "%", "INHIBITION": 10}
{"Compound": "Clc1cccc(C(CNCc2ccccn2)N2CCOCC2)c1 (stereo not given)", "Unit Label": "%", "INHIBITION": 53.9}

Can you give me INHIBITION for all of these, one by one?
1. CC(C)c1nc(CN2CCN(C(=O)OC(C)(C)C)C(C)C2)no1 (stereo not given)
2. CS(=O)(=O)c1cn[nH]c1C1CCCN1C(=O)c1cccnc1 (stereo not given)

1. -9.35
2. 24.4

---

Test system: Plasmodium berghei
Assay Remarks: Screen against P. berghei liver stage (PbLuc), transformed with Luciferase, at 10uM
Type: functional, HepG2
Details: tested at 10 uM
In all, about 69,000 compounds went through this assay and about 8,600 (12%) showed an effect of 50% or more. Only a selection was taken, and strong results are over-represented in it overall.
Each record is given True if its reported INHIBITION is strictly below 20%. Records at or above 20% are given False.

Examples with answers:
{"Molecule": "CCOc1ncnc2c1CCN(S(=O)(=O)CC)CC2", "Label": "False"}
{"Molecule": "CCc1nnc(CN(C)C(=O)C(CC)n2c(CC)nc3ccccc32)o1 (stereo unspecified)", "Label": "False"}
{"Molecule": "Cn1nc(-c2ccc(Cl)cc2)c(Br)c1C(=O)O", "Label": "False"}

Is INHIBITION strictly under 20% for the entry c1ccc(-c2nnc([C@H]3CCN(C4CCC4)C3)o2)cc1 ?
False

Is INHIBITION strictly under 20% for the entry CC(C)N1CCC(Nc2ccn(Cc3ccccn3)n2)C1=O (stereo unspecified) ?
False

Is INHIBITION strictly under 20% for the entry COc1cnc(CSc2nnc(C)s2)cc1OCC(=O)NC1CCCC1 ?
False

---

Tested on: Plasmodium berghei
Assay Remarks: Screen against P. berghei liver stage (PbLuc), transformed with Luciferase, at 10uM
Assay type: functional, HepG2
Details: tested at 10 uM
Out of some 69,000 compounds screened, about 8,600 (12%) showed an effect of 50% or more. The full list was thinned out, with strong results kept by preference.
Label scheme for INHIBITION: lower than 40% is not fulfilled, 40% and above is fulfilled.

Examples with answers:
{"Compound": "CCN1CC(CN(C)Cc2nc(-c3ccc(F)cc3F)oc2C)CC1=O (stereo unspecified)", "Test System": "Plasmodium berghei", "Label": "not fulfilled"}
{"Compound": "COc1ccc(Cc2noc(-c3ccc(NC(C)CO)nc3)n2)cc1 (stereo unspecified)", "Test System": "Plasmodium berghei", "Label": "fulfilled"}
{"Compound": "CN1CCC(c2cccc(Cc3ccccc3)n2)CC1", "Test System": "Plasmodium berghei", "Label": "fulfilled"}
{"Compound": "Cc1noc([C@@]23CCO[C@@H]2CCN(Cc2scnc2C)C3)n1", "Test System": "Plasmodium berghei", "Label": "not fulfilled"}
{"Compound": "Cc1nc(NCCc2ccccc2)cc(C(=O)N2CCOCC2)n1", "Test System": "Plasmodium berghei", "Label": "not fulfilled"}

Now take the following compound into account.
INHIBITION >= 40% for Cc1ccccc1CSc1nc(N)cc(N2CC[C@@H](O)C2)n1 ?
fulfilled

---

Tested on: Plasmodium berghei
Assay Remarks: Screen against P. berghei liver stage (PbLuc), transformed with Luciferase, at 10uM
Assay type: functional, HepG2
Details: tested at 10 uM
About 8,600 (12%) of roughly 69,000 compounds showed an effect of 50% or more. Only a selection was taken, and strong results are over-represented in it overall.
Label scheme for INHIBITION: lower than 40% is not met, 40% and above is met.

{"Molecule": "Cc1cnc(C)c(Oc2ccc(Cl)c(CN3CCCC3)c2Cl)n1", "Label": "met"}

INHIBITION >= 40% for CCc1ccc(C2CC(=O)Nc3cc(NS(C)(=O)=O)ccc32)o1 (stereo not given) ?
met

INHIBITION >= 40% for NC(=O)c1cncc(Oc2cccc(CN3CCCC3)c2Cl)n1 ?
not met

---

System: Plasmodium berghei
Assay Remarks: Screen against P. berghei liver stage (PbLuc), transformed with Luciferase, at 10uM
Assay type: functional, HepG2
Details: tested at 10 uM
Among all 69,000 compounds or so, about 8,600 (12%) showed an effect of 50% or more. This excerpt belongs to a sample that is enriched for strong results.
Property: INHIBITION (%)
Answers are plain numbers, in %.

{"Compound": "CCN(CC(C)O)C(=O)Nc1cnn(CCOC)c1 (stereo not given)", "Test System": "Plasmodium berghei", "Experimental Result": 29.8}
{"Compound": "CCC1=N[C@@]2(CC[C@@H]3CN(CC4CC4)C[C@@H]32)C(=O)N1CC1CC1", "Test System": "Plasmodium berghei", "Experimental Result": 30.3}
{"Compound": "CN1CCC2(CC1)Cc1ccccc1CN(C(=O)CN)C2", "Test System": "Plasmodium berghei", "Experimental Result": 29.2}
{"Compound": "CCC1CN(C(=O)NCCOc2ccc3c(c2)OCO3)CCO1 (stereo not given)", "Test System": "Plasmodium berghei", "Experimental Result": 30.2}

Query compound follows.
Read the entry Cc1cnn(-c2cccc(N3CCCC3)n2)c1 and write its reported INHIBITION.
30.3
